B1: TPR t1 (parent)
chain: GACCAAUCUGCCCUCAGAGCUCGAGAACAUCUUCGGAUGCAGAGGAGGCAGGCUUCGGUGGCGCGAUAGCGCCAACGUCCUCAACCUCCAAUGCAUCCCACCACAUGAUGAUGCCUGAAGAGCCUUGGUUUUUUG

- Variants of: B1
- method description: polymerase ribozyme fitness, log enrichment relative to wild type (log ratio); higher = more active; in vitro selection for triplet polymerase activity

polymer sequence	polymerase ribozyme fitness (log ratio)
GAGCUAUCUGUCCUCAGAGCUCGAGAACAUCUUCGGAUGCAGAGGAGGCAGGCUUCGGUGGCGCGAUAGCGCUAACGUCCUCAACCUCGAAUGCAUCCCACCACAUGAUGAUGCCUGAAGAGUCUUGGUUUUUUG	-1.08
GACCAAUCUGCCCUCAGAGCUCGAGAACAUCUUCGGAUGCAGAGGAGGCAGGCUUCGGUAGCGCGAUAGCGCCAACGUCCUCAACCUCCAAUGCAUCCCAUCACAUGAUGAUGCCUGAAGAGCCUUGGUUUUUUG	-0.265
GACCAAUCUGCCGUCAGAGCUCGAGAACAUCUUCGGAUGCAGAGGAGGCAGGCUUCGGUGGCGCGAUAGCGCCAACGUCCCCAACCUCCAAUGCAUCCCACCACAUGAUGAUGCCUGAAGAGCCUUGGUUUUUUG	-1.96
GACCAAUCUGCCCUCAGAGCUCGAGAACAUCUUCGGAUGCAGAGGAGGAAGGCUUCGGUGGCGCGAUAGCGUCAACGUCCUCAACCUCCAAUGCAUCCCACCACAUGACGAAGCCUGAAGCGCCUUGGUUUUUUG	-6.03
GACCAAUCUGCCCUCAGAGCUCGAGAACAUCUUCGGAUGCAGAGGAGGCAGGUUUCGGUGGCGCGAUAGCGCCAACGGCCUCAACCUCCAAUGCAUCCCACCACAUGAUGAUGCCUGAAGAGCCUUGGUUUUUUG	-0.118
GACCAAUCUGCCCUCAGAGCUUGAGAACAUCUUCGGAUGCAGAGGAGGCAGGCUUCGGUGGCGCGAUAGCGCCAACGUCCUCAACCUCCAAUGCAUCCCACCACAUGAUGAUGCCUGAAGAGCCUUGGUGUUUUG	-3.78
GACCAAUCUGCCCCCAGAGCUCGAGAACAUCUUCGGAUGCAGAGGAGGCAGGCUUCGGUGGCGCGAUAGCGACAACGUCCUCAACCUCCAAUGCAUCCCACCACAUGAUGAUGCCUGAAGAGCCUUGGUUUUUUG	-0.983
GACCAAUCUGCCCUCAGAGCUCGAGAACAUCUUCGGAUGCUGAGGAGGCAGGCUUCAGUGGCGCGAUAGCGCCAACAUCCUCAACCUCCAAUGCAUCCCACCACAUGAUGAUGCCUGAAGAGCCUUGGUUUUUUG	-1.68
GACCAAUCUGCCCUCAGAGCUCGAGAACAUCUUCGGAUGCAGAGGAGGCGGGCUUCGGUGGCGCGAUAGCGCCAACGUCCUCAACCUCCAAUGCAUCCCACCACAUGAUGAUGCCUGAAGAGCCUUGGUUUUUUG	0.111
GACCACUCUGCCCUCAGAGCUCGAGAACAUCUUCGGAUGCAGAGGAGUCAGGUUUCGGGGGCGCGAUAGUGCCAACGUCCUCAACCUCCCAUGCAUCCCACCACAUGAUGAUGCCUGAAGAGCCUUGGUUUUUUG	-4.07
GACCAAUUUGCCCUCAGAGCUCGAGAACAUCUUCGGAUGCAGAGGAGGCAGGCUUCGGUGGCGAGAUAGCGCCAACGCCCUCAACCUCCAAUGCAUCCCACCACAUGAUGAUGCCUGAAGAGCCUUGGUUUUUUG	-6.51
GACCAAUCUGCCCUCAGAGCUCGAGAACAUCUUCGGAUGCAGAGGAGGCAGGCUGCGGUGGCGCGAUAGCGCCAACGUCCUCAACCUCCAAUGCAUCCCACCACAUGAUGAUGCCUUAAGAGCCUUGGUUUUUUG	-2.73
GACCAAUCUGCCCUCAGAGCUCGAGAACAUCUUCGGAUGCAGAGGAGGCAGGGUUCGGUGGCGCGAUAGCGCCAACGUCCUCAACCUCCAAUGCAUACCACCACAUGAUGAUACCUGAAGAGCCUUGGUUUUUUG	-4.75
GACCAAUAUGCCCUCAGAGCUCGAGAACAUCUUCGGGUGCAGAGGAGGCAGGCUUCGGUGGGGCGAUAGCGGCAACGUCCUCAACCUCCAAUGCAUCCCACCACAUGAUGAGGCCUGAAGAGCCUUAGUUUUUUG	-5.98
GACAAAUCUGCCCUCAGAGCUCGAGAACAUCUUCGGAUGCAGAGGAGGCAGGCUUCGGUGGCGCGAUAGCGCCAACGUCCUCAACCUUCAAUGCAUCCCACCACAUGAUGAUGCCUGAAGAGCCUUGGUUUUUUG	-1.68
GACCAAUCUGCCCUCAGAGCUCGAGAACAUCUUCGGAUGCUGAGGAGGCAGGCUUCGGUGGCGCGAUAGCGCCAACGUCCUCAACCUCCAAUGCAUCCCACCACAUGAUGAUGCCUGAAGAGCGUUGGAUUUUUG	-0.389
GACCAAUCUGCCCUCAGAGCUCGAGAACAUCUUCGGAUGCAGAGGAGGCAGGCUUCGGUAGCGCGAUAGCGCCAACUUCCUCAACCUCCAAUGCAUCCCACCACAUGAUGAUGCCUGAAGAGCCUUGGUUUUUUG	-0.312
GACCAAUCUGCCCUCAGAGCUCGAGAACAUCUUCGGAUGCAUAGGAUGCAGGCUUCGGUGGCGCGAUAGCGCCAACGUCCUCAACCUCCAAUGCAUCCCACCACAUGAUGAUGCCUGAAGAGGCUUGGUUUUUUG	-1.61
GACCAAUCUGCCCUCAGAGCUCGAGAACAUCUUCGGAUGCAGACGAGGCAGGCUUCGGUGGCGCGAUAGCGCCAACGUCCUCAACCUCCAAUGCAUCCCACCACAUGAUGAGGCCUGAAUAGCCUUCGUUUUUUG	-5.08
GACCAAUCUGCCCUCAAAGCUCGAGAACAUCUUCGGAUGCAGAGGAGGCAGGCUACGGUGGCGCGAUAGCGCCAACUUCCUCAACCUCCAAUGCAUCCCACCACAUGAUGAUGCUUGAAGAGCCAUGGUUUUUUG	-0.205
GACCAAUCUGCCCUCAGAGCUCGAGAACAUCUUCGGAUGCAGAGGAGGUAGGCUUCGGUGGCGCGAUAGCGUCAACGUCCUCAACCUCCAAUGCAUCCCACCACAUGAUGAUGCCUGAAGAGCCUUGGUUUUUUG	-0.879
GACCAAUCUGCCCUCAGAGCUCGAGAACAUCUUAGGUUGCAGAGGUGGCAGGCUUCGGUGGCGCGAUAGCGCCUACGUCCUCAACCUCCAAUGCAUCCCACCACAUGAUGAUCCCUGAAGAGCCUUGGUUUUUUG	-6.79
